Values compiled from patent US20240116985A1.

Experiment: CHI Log D procedure
Assay type: physicochemical
Settings: pH 7.4
MEASUREMENT_KIND: CHI Log D
Simply state the number, no unit and no words.

Q: What value of measured CHI Log D is listed for CC(=O)N[C@@H](Cc1ccccc1)C(=O)N[C@@H](CC(=O)O)C(=O)N[C@@H](C)C(=O)N[C@]1(C)CCCCCCC=CCOC(=O)N2CC[C@@](C(=O)N[C@@H](CC3CCCCC3)C(=O)N[C@@H](Cc3c[nH]c4ccccc34)C(=O)N[C@@H](CCC(N)=O)C(N)=O)(C2)NC(=O)[C@H](C(C)C)NC(=O)[C@H](Cc2ccccc2)NC(=O)[C@H](C)NC(=O)[C@H](C)NC(=O)[C@H](CC(=O)O)NC(=O)[C@H](CC(=O)O)NC1=O ?
A: 1.446

Q: What value of measured CHI Log D is listed for CC[C@H](C)[C@@H]1NC(=O)[C@H](CC(=O)O)NC(=O)[C@]2(CC=CCCCC3(CCCC=CCCCCCC[C@@](C)(C(=O)N[C@@H](Cc4ccccc4)C(=O)N[C@@H](Cc4csc5ccccc45)C(=O)N[C@@H](CCC(N)=O)C(N)=O)NC(=O)[C@H](CCC(N)=O)NC(=O)[C@H](Cc4ccccc4)NC(=O)[C@H](Cc4c[nH]c5ccccc45)NC(=O)[C@H](C)NC(=O)[C@H](CCC(=O)O)NC(=O)[C@H](CC(=O)O)NC3=O)NC1=O)CCCN2C(C)=O (some centres unmarked) [I-665] ?
A: 2.448

Q: What value of measured CHI Log D is listed for CC[C@H](C)[C@@H]1NC(=O)[C@H](CC(=O)O)NC(=O)[C@]2(CC=CCCCC3(CCCC=CCCCCCC[C@@](C)(C(=O)N[C@@H](Cc4ccccc4)C(=O)N[C@@H](Cc4csc5ccccc45)C(=O)N[C@@H](CCC(N)=O)C(N)=O)NC(=O)[C@H](CCC(N)=O)NC(=O)[C@H](Cc4ccccc4)NC(=O)[C@H](C)NC(=O)[C@H](C)NC(=O)[C@H](CN(CC)CC(=O)O)NC(=O)[C@H](CC(=O)O)NC3=O)NC1=O)CCCN2C(C)=O (some centres unmarked) [I-608] ?
A: 2.506

Q: What value of measured CHI Log D is listed for CC(=O)N1CCC[C@]12CC=CCCCC1(CCCC=CCCCOC(=O)N3CC[C@@](C(=O)N[C@@H](Cc4ccsc4)C(=O)N[C@@H](Cc4csc5ccccc45)C(=O)N[C@@H](C(N)=O)[C@H](C)O)(C3)NC(=O)[C@H](CC(N)=O)NC(=O)[C@H](Cc3ccccc3)NC(=O)[C@H](C)NC(=O)[C@H](C)NC(=O)[C@H](CN(CC(=O)O)CC(F)(F)F)NC(=O)[C@H](CC(=O)O)NC1=O)NC(=O)[C@H](CC(C)(C)C)NC(=O)[C@H](CC(=O)O)NC2=O (some centres unmarked) [I-948] ?
A: 2.013

Q: What value of measured CHI Log D is listed for CC(=O)N[C@@H](Cc1ccccc1)C(=O)N[C@@H](CC(=O)O)C(=O)N[C@@H](C)C(=O)N[C@]1(C)CCCCCCC=CCOC(=O)N2CC[C@@](C(=O)N[C@@H](Cc3ccccc3)C(=O)N[C@@H](Cc3c[nH]c4ccccc34)C(=O)N[C@@H](CCC(N)=O)C(N)=O)(C2)NC(=O)[C@H](C(C)C)NC(=O)[C@H](Cc2ccccc2)NC(=O)[C@H](CCC(=O)O)NC(=O)[C@H](C)NC(=O)[C@H](CC(=O)O)NC(=O)[C@H](CC(=O)O)NC1=O (single isomer, unassigned) ?
A: 0.911

----------
Assay: CHI Log D procedure
Type: physicochemical
Conditions: pH 7.4, CHI Log D
API: label(entry) gives criterion met if the entry's chromatographic logD is strictly smaller than 2; on equality or larger values it gives criterion not met.

Q: chromatographic logD strictly < 2 for this compound? CC(=O)N1CCC[C@]12CC=CCCCC1(CCCC=CCCCOC(=O)N3CC[C@@](C(=O)N[C@@H](Cc4ccsc4)C(=O)N[C@@H](Cc4csc5ccccc45)C(N)=O)(C3)NC(=O)[C@H](CC(N)=O)NC(=O)[C@H](Cc3ccccc3)NC(=O)[C@H](C)NC(=O)[C@H](C)NC(=O)[C@H](CC(C)C)NC(=O)[C@H](CC(=O)O)NC1=O)NC(=O)[C@H](CC(C)(C)C)NC(=O)[C@H](CC(=O)O)NC2=O (some centres unmarked)
A: criterion not met

Q: chromatographic logD strictly < 2 for this compound? CC(=O)N[C@@H](Cc1ccccc1)C(=O)N[C@@H](CC(=O)O)C(=O)N[C@@H](C)C(=O)N[C@]1(C)CCCC=CCOC(=O)N(C)CCC[C@@](C)(C(=O)N[C@@H](Cc2ccccc2)C(=O)N[C@@H](Cc2c[nH]c3ccccc23)C(=O)N[C@@H](CCC(N)=O)C(N)=O)NC(=O)[C@H](C(C)C)NC(=O)[C@H](Cc2ccccc2)NC(=O)[C@H](C)NC(=O)[C@H](C)NC(=O)[C@H](CC(=O)O)NC(=O)[C@H](CC(=O)O)NC1=O
A: criterion met

Q: chromatographic logD strictly < 2 for this compound? CC(=O)N1CCC[C@]12CC=CCCCC1(CCCC=CCCCOC(=O)N3CC[C@@](C(=O)N[C@@H](Cc4ccsc4)C(=O)N[C@@H](Cc4csc5ccccc45)C(=O)N[C@@H](CCC(N)=O)C(N)=O)(C3)NC(=O)[C@H](CC(N)=O)NC(=O)[C@H](Cc3ccccc3)NC(=O)[C@H](C)NC(=O)[C@H](C)NC(=O)[C@H](CC(=O)O)NC(=O)[C@H](CC(=O)O)NC1=O)NC(=O)[C@H](CCC(C)C)NC(=O)[C@H](CC(=O)O)NC2=O (some centres unmarked)
A: criterion not met

Q: chromatographic logD strictly < 2 for this compound? CC(=O)N1CCC[C@]12CC=CCCCC1(CCCC=CCCCOC(=O)N3CC[C@@](C(=O)N[C@@H](Cc4ccsc4)C(=O)N[C@@H](Cc4csc5ccccc45)C(=O)N[C@@H](CCC(N)=O)C(=O)N[C@@H](CCCCNC(=O)c4ccc(CN5CCN(C)CC5)cc4)C(N)=O)(C3)NC(=O)[C@H](CC(N)=O)NC(=O)[C@H](Cc3ccccc3)NC(=O)[C@H](C)NC(=O)[C@H](C)NC(=O)[C@H](CC(=O)O)NC(=O)[C@H](CC(=O)O)NC1=O)NC(=O)[C@H](CC(C)(C)C)NC(=O)[C@H](CC(=O)O)NC2=O (some centres unmarked)
A: criterion met

Q: chromatographic logD strictly < 2 for this compound? CC(=O)N[C@@H](Cc1ccccc1)C(=O)N[C@@H](CC(=O)O)C(=O)N[C@]1(C)CCCCCCC=CCCC[C@@](C)(C(=O)N[C@@H](C)C(=O)N[C@@H](Cc2ccccc2)C(=O)N[C@@H](Cc2c[nH]c3ccccc23)C(=O)N[C@@H](CCC(N)=O)C(N)=O)NC(=O)[C@H](Cc2ccccc2)NC(=O)[C@H](C)NC(=O)[C@H](C)NC(=O)[C@H](CC(=O)O)NC(=O)[C@H](CC(=O)O)NC(=O)[C@H](C)NC1=O (single isomer, unassigned)
A: criterion met

----------
Target: beta-catenin/TCF4 engagement (Homo sapiens)
Construct: expressed in transfected cells; host or cells: HEK293
Sequence (P35222 whole entry): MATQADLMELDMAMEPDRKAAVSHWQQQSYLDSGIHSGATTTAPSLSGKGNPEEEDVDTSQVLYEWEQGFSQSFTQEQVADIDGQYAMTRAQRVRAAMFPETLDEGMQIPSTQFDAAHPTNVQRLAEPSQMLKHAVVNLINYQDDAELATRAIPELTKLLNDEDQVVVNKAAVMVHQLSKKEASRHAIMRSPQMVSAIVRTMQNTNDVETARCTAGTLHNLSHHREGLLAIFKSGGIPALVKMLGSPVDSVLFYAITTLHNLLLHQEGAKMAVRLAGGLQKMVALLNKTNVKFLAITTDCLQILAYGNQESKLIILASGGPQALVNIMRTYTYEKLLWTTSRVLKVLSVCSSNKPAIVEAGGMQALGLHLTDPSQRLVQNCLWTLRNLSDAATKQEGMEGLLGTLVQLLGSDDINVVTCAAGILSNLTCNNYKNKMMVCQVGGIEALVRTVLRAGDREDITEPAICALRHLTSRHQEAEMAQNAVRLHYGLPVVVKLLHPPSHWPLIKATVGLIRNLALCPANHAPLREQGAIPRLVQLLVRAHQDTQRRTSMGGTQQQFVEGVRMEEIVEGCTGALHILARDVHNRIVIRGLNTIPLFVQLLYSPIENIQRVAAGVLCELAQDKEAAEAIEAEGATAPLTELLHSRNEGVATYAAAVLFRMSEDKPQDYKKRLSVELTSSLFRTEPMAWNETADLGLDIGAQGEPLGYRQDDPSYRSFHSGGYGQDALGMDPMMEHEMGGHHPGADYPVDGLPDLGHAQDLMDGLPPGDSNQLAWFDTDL
Assay: Nano-BRET target engagement assay (B-cat-Halo & TCF4-Luc in HEK293 cells)
Type: cell-based
Details: absolute IC50; read-out: NanoBRET Abs IC50
Can you tell me IC50 for the items I'm about to list?
Numeric only. Scale: µM

Q: What value of measured IC50 is listed for CC(=O)N1CCC[C@]12CC=CCCCC1(CCCC=CCCCCCC[C@@](C)(C(=O)N[C@@H](Cc3ccccc3)C(=O)N[C@@H](Cc3csc4ccccc34)C(=O)N[C@@H](CCC(N)=O)C(N)=O)NC(=O)[C@H](CC(C)C)NC(=O)[C@H](Cc3ccccc3)NC(=O)[C@H](C)NC(=O)[C@H](C)NC(=O)[C@H](CCC(=O)O)NC(=O)[C@H](CC(=O)O)NC1=O)NC(=O)[C@H](Cc1ccccc1)NC(=O)[C@H](CC(=O)O)NC2=O (stereo partly drawn) ?
A: 15.3

Q: What value of measured IC50 is listed for CC(=O)N1CCC[C@]12CC=CCCCC1(CCCC=CCCCOC(=O)N3CC[C@@](C(=O)N[C@@H](Cc4ccsc4)C(=O)N[C@@H](Cc4csc5ccccc45)C(=O)N[C@@H](CC(N)=O)C(=O)N[C@@H](CC(C)C)C(=O)N[C@@H](CC(C)C)C(=O)N[C@@H](CC(C)C)C(N)=O)(C3)NC(=O)[C@H](CC(C)C)NC(=O)[C@H](Cc3ccccc3)NC(=O)[C@H](C)NC(=O)[C@H](C)NC(=O)[C@H](Cc3cccc(C(=O)O)c3)NC(=O)[C@H](CC(=O)O)NC1=O)NC(=O)[C@H](CC(C)(C)C)NC(=O)[C@H](CC(=O)O)NC2=O (stereo partly drawn) [I-2275] ?
A: 3.5

Q: What value of measured IC50 is listed for CC(=O)N1CCC[C@]12CC=CCCCC1(CCCC=CCCCCCC[C@@](C)(C(=O)N[C@@H](Cc3ccccc3)C(=O)N[C@@H](Cc3csc4ccccc34)C(=O)N[C@@H](CCC(N)=O)C(=O)N[C@H](C)C(N)=O)NC(=O)[C@H](CC(N)=O)NC(=O)[C@H](Cc3ccccc3)NC(=O)[C@H](C)NC(=O)[C@H](C)NC(=O)[C@H](CCC(=O)O)NC(=O)[C@H](CC(=O)O)NC1=O)NC(=O)[C@H](CC(C)C)NC(=O)[C@H](CC(=O)O)NC2=O (stereo partly drawn) ?
A: 11.6

Q: What value of measured IC50 is listed for CC(=O)N1CCC[C@]12CC=CCCCC1(CCCC=CCCCCCC[C@@](C)(C(=O)N[C@@H](Cc3ccccc3)C(=O)N[C@@H](Cc3csc4ccccc34)C(=O)N[C@@H](CO)C(N)=O)NC(=O)[C@H](CC(N)=O)NC(=O)[C@H](Cc3ccccc3)NC(=O)[C@H](C)NC(=O)[C@H](C)NC(=O)[C@H](CCC(=O)O)NC(=O)[C@H](CC(=O)O)NC1=O)NC(=O)[C@H](CC(C)C)NC(=O)[C@H](CC(=O)O)NC2=O (stereo partly drawn) [I-751] ?
A: 7.1

Q: What value of measured IC50 is listed for CC(=O)N1CCC[C@]12CC=CCCCC1(CCCC=CCCCOC(=O)N3CC[C@@](C(=O)N[C@@H](Cc4ccsc4)C(=O)N[C@@H](Cc4csc5ccccc45)C(=O)N[C@@H](CCC(N)=O)C(N)=O)(C3)NC(=O)[C@H](Cc3ccccc3C(F)(F)F)NC(=O)[C@H](Cc3ccccc3)NC(=O)[C@H](C)NC(=O)[C@H](C)NC(=O)[C@H](CC(=O)O)NC(=O)[C@H](CC(=O)O)NC1=O)NC(=O)[C@H](CC(C)(C)C)NC(=O)[C@H](CC(=O)O)NC2=O (stereo partly drawn) ?
A: 5.5

Q: What value of measured IC50 is listed for CC(=O)N1CCC[C@]12CC=CCCCC1(CCCC=CCCCOC(=O)N3CC[C@@](C(=O)N[C@@H](Cc4ccccc4Cl)C(=O)N[C@@H](Cc4csc5ccccc45)C(=O)N[C@@H](C(N)=O)[C@H](C)O)(C3)NC(=O)[C@H](Cc3ccccc3)NC(=O)[C@H](Cc3ccccc3)NC(=O)[C@H](C)NC(=O)[C@H](C)NC(=O)[C@H](CC(=O)O)NC(=O)[C@H](CC(=O)O)NC1=O)NC(=O)[C@H](CC(C)(C)C)NC(=O)[C@H](CC(=O)O)NC2=O (stereo partly drawn) ?
A: 9.5

Q: What value of measured IC50 is listed for CC(=O)N1CCC[C@]12CC=CCCCC1(CCCC=CCCCOC(=O)N3CC[C@@](C(=O)N[C@@H](Cc4ccccc4Cl)C(=O)N[C@@H](Cc4csc5ccccc45)C(=O)N[C@@H](CCC(N)=O)C(N)=O)(C3)NC(=O)[C@H](CO)NC(=O)[C@H](Cc3ccccc3)NC(=O)[C@H](CC(C)C)NC(=O)[C@H](C)NC(=O)[C@H](CC(=O)O)NC(=O)[C@H](CC(=O)O)NC1=O)NC(=O)[C@H](CC1CCCCC1)NC(=O)[C@H](CC(=O)O)NC2=O (stereo partly drawn) ?
A: 21.5
